Just for reference, ChEMBL document CHEMBL1817622 is where these values come from.

# Test system: HepG2 2.2.15
# experimental-details: Inhibition of Hsc70 mRNA expression in human HepG2(2.2.15) cells at 100 ug/ml after 24 hrs by RT-PCR analysis
# Format: functional
# condition: HepG2 2.2.15, 24 h
inhibition at 100 µg/mL vs 50%: at or above is 1, below is 0.

Below are worked cases with known answers.
C[N+]1(C)C[C@@H]2CCC[N+]3([O-])CCC[C@@H]([C@H]23)[C@H]1CCCC(=O)O (some centres not stated) = 0
O=CN1C[C@@H]2CCCN3CCC[C@@H]([C@H]23)[C@H]1CCCC(=O)O = 0
CCN1C[C@@H]2CCCN3CCC[C@@H]([C@H]23)[C@H]1CCCC(=O)O = 0
O=C(O)CCC[C@@H]1[C@H]2CCC[N+]3([O-])CCC[C@@H](CN1Cc1ccccc1)[C@@H]23 (some centres not stated) = 1
O=C(O)CCC[C@H]1NC[C@@H]2CCCN3CCC[C@H]1[C@H]23 = 0

Problem: Is the recorded value of inhibition at 100 µg/mL equal to or greater than 50% for this compound? COc1ccc(CN2C[C@@H]3CCC[N+]4([O-])CCC[C@@H]([C@H]34)[C@H]2CCCC(=O)O)cc1 (some centres not stated)
Solution: 1

Problem: Is the recorded value of inhibition at 100 µg/mL equal to or greater than 50% for this compound? O=C(O)CCC[C@@H]1[C@H]2CCCN3CCC[C@@H](CN1C(=O)c1ccccc1)[C@@H]23
Solution: 0

Problem: Is the recorded value of inhibition at 100 µg/mL equal to or greater than 50% for this compound? CC(=O)N1C[C@@H]2CCCN3CCC[C@@H]([C@H]23)[C@H]1CCCC(=O)O
Solution: 0

Problem: Is the recorded value of inhibition at 100 µg/mL equal to or greater than 50% for this compound? O=C(O)CCC[C@@H]1[C@H]2CCCN3CCC[C@@H](CN1Cc1ccccc1)[C@@H]23
Solution: 1

Problem: Is the recorded value of inhibition at 100 µg/mL equal to or greater than 50% for this compound? O=C(O)CCC[C@H]1NC[C@@H]2CCC[N+]3([O-])CCC[C@H]1[C@H]23 (some centres not stated)
Solution: 0

====

Attribute: inhibition at 100 µg/mL
# Tested on: HepG2 2.2.15
# experimental-details: Inhibition of Hsc70 mRNA expression in human HepG2(2.2.15) cells at 100 ug/ml after 24 hrs by RT-PCR analysis
# Format: functional
# condition: HepG2 2.2.15, 24 h
Enter your answer as a number in %; do not include the unit.

Worked set:
COc1cccc(CN2C[C@@H]3CCCN4CCC[C@@H]([C@H]34)[C@H]2CCCC(=O)O)c1 = 55.6
COc1ccc(CN2C[C@@H]3CCCN4CCC[C@@H]([C@H]34)[C@H]2CCCC(=O)O)cc1 = 72.1
Cc1ccc(S(=O)(=O)N2C[C@@H]3CCCN4CCC[C@@H]([C@H]34)[C@H]2CCCC(=O)O)cc1 = 39.8
O=C(O)CCC[C@@H]1[C@H]2CCCN3CCC[C@@H](CN1CCO)[C@@H]23 = 53.7
OCCCC[C@H]1NC[C@@H]2CCCN3CCC[C@H]1[C@H]23 = 39.3

Sample OCCCC[C@@H]1[C@H]2CCCN3CCC[C@@H](CN1Cc1ccccc1)[C@@H]23 ; inhibition at 100 µg/mL observed: 25.5

Sample C[N+]1(C)C[C@@H]2CCCN3CCC[C@@H]([C@H]23)[C@H]1CCCC(=O)O ; inhibition at 100 µg/mL observed: 14.1

Sample COc1ccc(CN2C[C@@H]3CCCN4CCC[C@@H]([C@H]34)[C@H]2CCCCO)cc1 ; inhibition at 100 µg/mL observed: 12.2
